Hello, the source for this data is paper PMC10361207, in case you need it.

Assay: Cytotoxicity, Neutral Red, SK-MEL
Assay type: cell-based
Details: human, SK-MEL malignant melanoma cells, Na = not active up to 50 µg/mL
Measure Name: IC50 at 48 h (µg/mL)
Answers are plain numbers, in µg/mL.

Give me IC50 at 48 h for each of these compounds, listed below.
1. C[C@H]1CC[C@H]2[C@H](C1)c1c(O)cc(/C=C/c3ccccc3O)cc1OC2(C)C [compound 3, machaeriol C]
2. C=C(C)[C@H]1CC[C@H](C)C[C@@H]1c1c(O)cc(/C=C/c2ccccc2O)cc1O [compound 6, machaeridiol B]
3. COc1cccc2c1C(=O)c1c(O)c3c(c(O)c1C2=O)C[C@@](O)(C(=O)CO)C[C@@H]3O[C@H]1C[C@H](N)[C@H](O)[C@H](C)O1 [Doxorubicin, reference compound]

Solution:
25
32
2.2
